Tested on: KRAS PDC multicell spheroid viability;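 also: spheroids exposed to compounds for 7 days; 100% = DMSO vehicle control viability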
measurement notes: Anticancer human tumor 825966-067-R-J1-PDC patient-derived colon carcinoma cell line growth inhibition [KRAS2]
condition notes: second compound 1 µM; first compound 0.1 µM; active compounds read low
reported endpoint: viability, T/C

1. CCN1CCN(Cc2ccc(Nc3ncc(F)c(-c4cc(F)c5nc(C)n(C(C)C)c5c4)n3)nc2)CC1 + CC1OCC2(CCN(c3cnc(Sc4ccnc(N)c4Cl)c(N)n3)CC2)C1N: 130%
2. CC(=O)OC12COC1CC(O)C1(C)C(=O)C(O)C3=C(C)C(OC(=O)C(O)C(NC(=O)OC(C)(C)C)c4ccccc4)CC(O)(C(OC(=O)c4ccccc4)C21)C3(C)C (stereo unspecified) + C=CC(=O)N1CCN(c2nc(=O)n(-c3c(C)ccnc3C(C)C)c3nc(-c4c(O)cccc4F)c(F)cc23)C(C)C1: 25.9%
3. CC1COCCN1c1cc(-c2ccnn2C)c2ccnc(-c3ccn[nH]3)c2n1 (stereo unspecified) + C=CC(=O)N1CCN(c2nc(OCC3CCCN3C)nc3c2CCN(c2cccc4cccc(C)c24)C3)CC1CC#N: 39.6%
4. Cn1nccc1Nc1nccc(-c2cc3c(s2)C(C)(C)N(CCN2CCOCC2)C3=O)n1 + C=CC(=O)N1CCN(c2nc(OCC3CCCN3C)nc3c2CCN(c2cccc4cccc(C)c24)C3)CC1CC#N: 96.1%
5. CC1OCC2(CCN(c3cnc(Sc4ccnc(N)c4Cl)c(N)n3)CC2)C1N (stereo unspecified) + C=CC(=O)N1CCN(c2nc(OCC3CCCN3C)nc3c2CCN(c2cccc4cccc(C)c24)C3)CC1CC#N: 105%
6. O=C(c1cc(Cc2n[nH]c(=O)c3ccccc23)ccc1F)N1CCN(C(=O)C2CC2)CC1 + COc1cc2nc(C)nc(NC(C)c3cc(N)cc(C(F)(F)F)c3)c2cc1OC1CCOC1: 81.5%
7. COc1cc2nccc(Oc3ccc(NC(=O)C4(C(=O)Nc5ccc(F)cc5)CC4)cc3)c2cc1OC + C=CC(=O)N1CCN(c2nc(OCC3CCCN3C)nc3c2CCN(c2cccc4cccc(C)c24)C3)CC1CC#N: 78.7%
8. CC(C)n1nc(-c2ccc3oc(N)nc3c2)c2c(N)ncnc21 + COc1cc2nc(C)nc(NC(C)c3cc(N)cc(C(F)(F)F)c3)c2cc1OC1CCOC1: 75.2%

Enquiry: Provide measured viability, T/C value, entry: CC1COCCN1c1cc(-c2ccnn2C)c2ccnc(-c3ccn[nH]3)c2n1 (stereo unspecified) + CNCc1ccccc1-c1csc(C(C)Nc2nc(C)nc3cc(OC)c(OC)cc23)c1
Return: 56.8%

Enquiry: Return viability, T/C for the following molecule: CC1COCCN1c1cc(-c2ccnn2C)c2ccnc(-c3ccn[nH]3)c2n1 (stereo unspecified) + C=CC(=O)N1CCN(c2nc(=O)n(-c3c(C)ccnc3C(C)C)c3nc(-c4c(O)cccc4F)c(F)cc23)C(C)C1
Return: 71%

Enquiry: Provide measured viability, T/C value, entry: CC(C)n1nc(-c2ccc3oc(N)nc3c2)c2c(N)ncnc21 + C=CC(=O)N1CCN(c2nc(=O)n(-c3c(C)ccnc3C(C)C)c3nc(-c4c(O)cccc4F)c(F)cc23)C(C)C1
Return: 107%
